MEASUREMENT_NOTES: AUCinfinity in Sprague-Dawley rat at 5 mg/kg, po
Format: ADME, organism-based
Parameters: time infinity, route oral, dose 5 mg/kg
TEST_SETTINGS: in vivo
Documented AUC(0-inf) across a set of compounds
The reply should contain only the number, in ng·h/mL.

Query AUC(0-inf) for Oc1ccccc1C1=NNC(c2ccc(Br)cc2)C1 (configuration not stated)
184

// next item, AUC(0-inf) requested
Query AUC(0-inf) for Oc1ccccc1C1=NNC(c2ccc(Cl)cc2)C1 (configuration not stated)
215

###

Documented MIC90 across a set of compounds
System: Mycolicibacterium smegmatis
MEASUREMENT_NOTES: Antitubercular activity against Mycobacterium smegmatis mc2155 ATCC 700084 cultured in GAST media incubated for 24 hrs by resazurin microtiter assay
Type: functional
The reply should contain only the number, in µg/mL.

Examples with their reported MIC90 follow.
Please tell me the measured MIC90 for Cc1ccccc1C1CC(c2ccccc2O)=NN1C(N)=S (configuration not stated) ; system: Mycolicibacterium smegmatis.
128

Please tell me the measured MIC90 for Cc1ccc(C2CC(c3ccccc3O)=NN2C(N)=S)cc1 (configuration not stated) ; system: Mycolicibacterium smegmatis.
128

Please tell me the measured MIC90 for NC(=S)N1N=C(c2ccccc2O)CC1c1ccc(O)cc1 (configuration not stated) ; system: Mycolicibacterium smegmatis.
256

Please tell me the measured MIC90 for NC(=S)N1N=C(c2ccccc2O)CC1c1ccccc1O (configuration not stated) ; system: Mycolicibacterium smegmatis.
64

Please tell me the measured MIC90 for Oc1ccccc1C1=NNC(c2ccccc2)C1 (configuration not stated) ; system: Mycolicibacterium smegmatis.
64

// next item, MIC90 requested
Please tell me the measured MIC90 for Cc1ccccc1C1CC(c2ccccc2O)=NN1 (configuration not stated) ; system: Mycolicibacterium smegmatis.
16

###

MEASUREMENT_NOTES: Oral bioavailability in Sprague-Dawley rat at 5 mg/kg
Format: ADME, organism-based
TEST_SETTINGS: in vivo
Documented bioavailability across a set of compounds
The reply should consist of the numeric value with the unit placed after it.

Query bioavailability for Oc1ccccc1C1=NNC(c2ccc(Cl)cc2)C1 (configuration not stated)
21%

// next item, bioavailability requested
Query bioavailability for Oc1ccccc1C1=NNC(c2ccc(Br)cc2)C1 (configuration not stated)
22%

###

Test system: Mycolicibacterium smegmatis
MEASUREMENT_NOTES: Antitubercular activity against Mycobacterium smegmatis mc2155 ATCC 700084 cultured in GAST media incubated for 24 hrs by resazurin microtiter assay
Assay type: functional
Documented MIC90 across a set of compounds
The reply should contain only the number, in µg/mL.

Query MIC90 for Oc1ccc(C2CC(c3ccccc3O)=NN2)cc1 (configuration not stated)
32

---
Query MIC90 for NC(=S)N1N=C(c2ccccc2O)CC1c1cccc(Cl)c1 (configuration not stated)
256

Query MIC90 for COc1ccc(C2CC(c3ccccc3O)=NN2)cc1 (configuration not stated)
64

Query MIC90 for Oc1ccccc1C1=NNC(c2ccccc2O)C1 (configuration not stated)
64

Query MIC90 for Oc1ccccc1C1=NNC(c2ccc(F)cc2)C1 (configuration not stated)
8

###

Documented half-life across a set of compounds
MEASUREMENT_NOTES: Elimination half life in Sprague-Dawley rat at 1 mg/kg, iv
Assay type: ADME, organism-based
TEST_SETTINGS: in vivo, read-out: beta t1/2 (converted)

Query half-life for Oc1ccccc1C1=NNC(c2ccc(Cl)cc2)C1 (configuration not stated)
4.76 h

// next item, half-life requested
Query half-life for Oc1ccccc1C1=NNC(c2ccc(Br)cc2)C1 (configuration not stated)
5.42 h
